Recorded values, source patent US20220073604A1.

molecular target: human IL-6 (as added in the B9 and 7TD1 bioassays) (human, UniProt P05231 30-212); assay: cell-based or functional assay
MEASURED METRIC: IC50, 7TD1 cells (pM)
Note: unit pM is implicit; provide only the numeric part.

BINDER	UNITS SYMBOL	VAL
133E5 (germlined variant of 68F2) (antibody, V domains shown) VH: QVQLQESGPGLVKPSQTLSLTCTVSGGSITSRYYAWSWIRQPPGKGLEWIGVIDYDGDTYYSPSLKSRVTISWDTSKNQFSLKLSSVTPEDTAVYYCARDPDVVTGFHYDYWGQGTQVTVSS VL: QSALTQPPSVSGSPGQTVTISCAGANNDIGTYAYVSWYQQLPGTAPKLMIYKVTTRASGIPDRFSGSKSGNTASLTISGLQAEDEADYYCASYRNFNNAVFGRGTKLTVL	pM	0.1
133A9 (germlined variant of 68F2) (antibody, V domains shown) VH: EVQLQESGPGLVKPSQTLSLTCTVSGGSITTRYYAWSWIRQPPGKGLEWIGVIDYEGDTYYSPSLKSRVTISVDTSKNQFSLKLSSVTAEDTAVYYCARDPDVVTGFHYDYWGQGTMVTVSS VL: QSALTQPPLVSGSPGQTVTISCAGANNDIGTYAYVSWYQQPPGTAPKLMIYKVTTRASGIPDRFSGSISGNTASLTISGLQSEDEADYYCASYRNFNNAVFGTGTKLTVL	pM	0.18

Consider the record given below.
Exam item: Dear colleague, I am looking for the recorded IC50, 7TD1 cells of the following binder: 111A7_SDM2_M100A (antibody, V domains shown) VH: EVQLLESGGGLVQPGGSLRLSCAASGFTFSSYAMSWVRQAPGKGPEWVSRISAGGGSTYYGDSVKGRFTISRDNSKNTLYLQMNSLRAEDTAVYYCANRAGWGAGDYWGQGTLVTVSS VL: QTVVTQEPSFSVSPGGTVTLTCGLSSGSVTASNYPGWYQQTPGQAPRALIYSTNDRHSGVPDRFSGSISGNKAALTITGAQAEDEADYYCALDIGDITEFGGGTQLTVL
Marked response: 1.57
